tested on: S. aureus strain KCTC1621; assay type: cell-based; details: KCTC1621, 18 h
Non-standard residues stand in square brackets, D forms with d. Residues, ends and D or L forms follow the SMILES beside them. Nspe = C[C@H](NCC(=O)O)c1ccccc1; Nphe = O=C(O)CNCc1ccccc1; Nlys = NCCCCNCC(=O)O
Form field: MIC S. aureus (one value per entry).
Dear colleague, please return just the value in µM, with no unit written.

C[C@@H](c1ccccc1)N(CC(=O)N(CCCCN)CC(=O)N(CC(=O)N(CC(N)=O)Cc1ccccc1)Cc1ccccc1)C(=O)CN(Cc1ccccc1)C(=O)CN(CCCCN)C(=O)CN(Cc1ccccc1)C(=O)CN(Cc1ccccc1)C(=O)CN(CCCCN)C(=O)CN(Cc1ccccc1)C(=O)CN(Cc1ccccc1)C(=O)CNCCCCN [compound 8] (H-[Nlys][Nphe][Nphe][Nlys][Nphe][Nphe][Nlys][Nphe][Nspe][Nlys][Nphe][Nphe]-NH2)
3.1

**Q:** Dear colleague, I am looking for the recorded MIC S. aureus of the following molecule: C[C@@H](c1ccccc1)N(CC(=O)N(CCCCN)CC(=O)N(CC(=O)N(CC(=O)N(CCCCN)CC(=O)N(CC(=O)N(CC(N)=O)Cc1ccccc1)Cc1ccccc1)[C@@H](C)c1ccccc1)[C@@H](C)c1ccccc1)C(=O)CN(C(=O)CN(CCCCN)C(=O)CN(Cc1ccccc1)C(=O)CN(Cc1ccccc1)C(=O)CNCCCCN)[C@@H](C)c1ccccc1 [compound 16] (H-[Nlys][Nphe][Nphe][Nlys][Nspe][Nspe][Nlys][Nspe][Nspe][Nlys][Nphe][Nphe]-NH2)
**A:** 1.6
